- System: NCI-H23 lung
- protocolSummary: NCI-60 one-dose screen, 48 h (100 = growth as untreated, 0 = no growth, -100 = all killed)
- details: 10 µM unless noted
Compounds without any hit were thinned out: in the full panel of roughly 83,000, 20% have a hit.
Assign TRUE to entries whose growth meets or exceeds 70%; assign FALSE to the rest.

Consider the worked cases shown below.
COc1ccc(N(C)c2nc(Cl)nc3cnn(C)c23)cc1	FALSE
CCNCCNc1cc(-c2cccc(C(F)(F)F)c2)c(C#N)c2nc3ccccc3n12	FALSE
O=C(/C=C/C12c3ccccc3C(c3ccccc31)C1C(=O)N(c3ccc(Cl)cc3)C(=O)C12)c1ccccn1 (configuration not stated)	FALSE

In: Say whether "COc1ccc2c(c1)/C(=C\c1sc(=S)[nH]c1O)C(C(=O)O)=N2" shows growth of 70% or more.
Out: TRUE

In: Request: "COc1cc(-c2ccc(-c3ccc(C(=N)N)nc3)s2)cc(OC)c1OC"
Out: TRUE

In: Request: "Cc1cc(Cl)nc(N(CCCNc2ccnc3cc(Cl)ccc23)Cc2ccccn2)n1"
Out: FALSE

In: Request: "N#Cc1c(-c2ccc(C(F)(F)F)cc2)cc(N2CC(O)C2)n2c1nc1ccccc12"
Out: FALSE

----------
- System: OVCAR-4 ovarian
- protocolSummary: NCI-60 one-dose screen, 48 h (100 = growth as untreated, 0 = no growth, -100 = all killed)
- details: 10 µM unless noted
Compounds without any hit were thinned out: in the full panel of roughly 83,000, 20% have a hit. Activity calls are given as the source filed them. The calls were made as follows: active = growth percent below 10; inactive = the rest.
attributeMeasured: growth

See these solved cases before continuing.
COc1cc(/C=C/C(=O)c2cccc(-n3cc(-c4ccccc4)[nH]c3=O)c2)cc(OC)c1OC	-7.54% (active)
CCNCCNc1cc(C2CCCC2)c(C#N)c2nc3ccccc3n12	-13.5% (active)

In: Quick check: growth of "Cc1cc(N(CCCNc2ccnc3cc(Cl)ccc23)Cc2ccccn2)nc(N2CCOCC2)n1" ?
Out: 82.3% (inactive)

In: Request: COc1cc(C2CC(=O)Nc3n[nH]c(-c4ccccc4)c32)cc(OC)c1OC (configuration not stated)
Out: 88.4% (inactive)

In: Request: "NC(N)=N/N=C/CO"
Out: 96% (inactive)

In: Request: "Cc1ccccc1NC(=O)CN(C)C"
Out: 118% (inactive)

In: Request: C=C1c2c(C)nn(-c3ccc(O)cc3)c2N(C)C23C[C@@H]1C1(C)c4c(C)nn(-c5ccc(O)cc5)c4N(C)C(C)(C[C@H]12)C3 (some centres not stated)
Out: 32.2% (inactive)

----------
- Tested on: BT-549 breast
- protocolSummary: NCI-60 one-dose screen, 48 h
- details: 10 µM unless noted
The panel holds about 83,000 compounds, 20% with a hit somewhere; the sample as a whole holds those more often. Active and inactive are the calls of the source. Rule for the calls: active = growth percent below 10; inactive = the rest.
# output must be one of Y = active, N = inactive

Cc1c(C)c2c(c(C)c1NC(=O)/C=C\C(=O)O)CCC(C)(CCCC(C)CCCC(C)CCCC(C)C)O2 (centres undefined)	Y

In: Returns: the outcome recorded for "CC(C)(O)c1cccc(F)c1" in this assay.
Out: N

In: Request: O=c1[nH]c(=O)n(C2CC(O)C(CO)O2)cc1CO (centres undefined)
Out: N

In: Request: "CCCCOc1ccc(NC(=O)n2nc(N=NN(C)C)c3ccc(Cl)cc32)cc1"
Out: N

In: Request: "COc1ccc(Cn2cnc3cc(C(=O)Nc4cccc5ccccc45)ccc32)c(OC)c1"
Out: N

In: Request: "N#C/C=C(\c1ccc([N+](=O)[O-])cc1)n1nnc2cc(Cl)c(Cl)cc21"
Out: N

In: Request: "CCOC(=O)c1ccc(-c2ccc3cc(OC)ccc3c2)nc1C"
Out: N
